The measured values listed here are drawn from ChEMBL document CHEMBL4364301.

- System: LNCaP
- test name: Antiproliferative activity against human LNCAP cells assessed as reduction in cell growth incubated for 96 hrs by propidium iodide based 2D monolayer assay
- Assay type: functional
pIC50: −log10 of the molar value.
metric name: pIC50

- compound: "CC(O)(COc1ccccc1C(F)(F)F)C(=O)Nc1cccc(S(F)(F)(F)(F)F)c1 (racemic)"
  result value: 4.58
- compound: "CC(O)(CSc1ccccc1OC(F)(F)F)C(=O)Nc1cccc(S(F)(F)(F)(F)F)c1 (racemic)"
  result value: 5.00
- compound: "CC(O)(CS(=O)(=O)c1ccc(C(F)(F)F)cc1)C(=O)Nc1ccc(S(F)(F)(F)(F)F)cc1 (racemic)"
  result value: 4.68
- compound: "CC(O)(CS(=O)(=O)c1cccc(C(F)(F)F)c1)C(=O)Nc1cccc(S(F)(F)(F)(F)F)c1 (racemic)"
  result value: 4.66
- compound: "CC(O)(CS(=O)(=O)c1cccc(S(F)(F)(F)(F)F)c1)C(=O)Nc1ccc([N+](=O)[O-])c(C(F)(F)F)c1 (racemic)"
  result value: 4.86

* * *

Form field: IC50 (one value per entry).
- Test system: LNCaP
- test name: Antiproliferative activity against human LNCAP cells assessed as reduction in cell growth incubated for 96 hrs by propidium iodide based 2D monolayer assay
- Assay type: functional

- molecule: "CC(O)(CSc1cccc(S(F)(F)(F)(F)F)c1)C(=O)Nc1ccc(C#N)c(C(F)(F)F)c1 (racemic)"
  measured target: "LNCaP"
  readout units: "µM"
  IC50: 14.5
- molecule: "CC(O)(COc1cccc(C(F)(F)C(F)(F)F)c1)C(=O)Nc1cc(C(F)(F)F)cc(C(F)(F)F)c1 (racemic)"
  measured target: "LNCaP"
  readout units: "µM"
  IC50: 4.4
- molecule: "CC(O)(COc1ccc(C#N)cc1)C(=O)Nc1cccc(S(F)(F)(F)(F)F)c1 (racemic)"
  measured target: "LNCaP"
  readout units: "µM"
  IC50: 30
- molecule: "CC(O)(CSc1ccc(C(F)(F)F)cc1)C(=O)Nc1cccc(S(F)(F)(F)(F)F)c1 (racemic)"
  measured target: "LNCaP"
  readout units: "µM"
  IC50: 17.5
- molecule: "CC(O)(CS(=O)(=O)c1cccc(S(F)(F)(F)(F)F)c1)C(=O)Nc1ccc([N+](=O)[O-])cc1C(F)(F)F (racemic)"
  measured target: "LNCaP"
  readout units: "µM"
  IC50: 6.5
- molecule: "CC(O)(CSc1ccccc1OC(F)(F)F)C(=O)Nc1ccc(S(F)(F)(F)(F)F)cc1 (racemic)"
  measured target: "LNCaP"
  readout units: "µM"
  IC50: 10.6
- molecule: "CC(O)(COc1ccc(S(F)(F)(F)(F)F)cc1)C(=O)Nc1ccc(S(F)(F)(F)(F)F)cc1 (racemic)"
  measured target: "LNCaP"
  readout units: "µM"
  IC50: 9.8
- molecule: "CC(O)(CSc1ccc(C(F)(F)F)cc1)C(=O)Nc1ccc(S(F)(F)(F)(F)F)cc1 (racemic)"
  measured target: "LNCaP"
  readout units: "µM"
  IC50: 17

* * *

- Tested on: LNCaP
- test name: Antiproliferative activity against human LNCAP cells assessed as reduction in cell growth incubated for 96 hrs by propidium iodide based 2D monolayer assay
- Assay type: functional
pIC50: −log10 of the molar value.

- compound: "CC(O)(COc1ccc(S(F)(F)(F)(F)F)cc1)C(=O)Nc1ccc([N+](=O)[O-])c(C(F)(F)F)c1 (racemic)"
  measured target: "LNCaP"
  pIC50: 4.00
- compound: "CC(O)(COc1ccc(S(F)(F)(F)(F)F)cc1)C(=O)Nc1ccc(C#N)cc1C(F)(F)F (racemic)"
  measured target: "LNCaP"
  pIC50: 4.91
- compound: "CC(O)(COc1ccc(S(F)(F)(F)(F)F)cc1)C(=O)Nc1ccc(C#N)c(C(F)(F)F)c1 (racemic)"
  measured target: "LNCaP"
  pIC50: 4.94
- compound: "CC(O)(COc1cccc(S(F)(F)(F)(F)F)c1)C(=O)Nc1ccc(S(F)(F)(F)(F)F)cc1 (racemic)"
  measured target: "LNCaP"
  pIC50: 4.92
- compound: "CNC(=O)c1ccc(N2C(=S)N(c3ccc(S(F)(F)(F)(F)F)cc3)C(=O)C2(C)C)cc1F"
  measured target: "LNCaP"
  pIC50: 4.64
- compound: "CC1(C)C(=O)N(c2ccc(C#N)cc2C(F)(F)F)C(=S)N1c1cccc(S(F)(F)(F)(F)F)c1"
  measured target: "LNCaP"
  pIC50: 5.39
- compound: "CC1(C)C(=O)N(c2ccc(S(F)(F)(F)(F)F)cc2)C(=S)N1c1ccc(C(F)(F)F)cc1"
  measured target: "LNCaP"
  pIC50: 4.32
- compound: "CC(O)(COc1cccc(S(F)(F)(F)(F)F)c1)C(=O)Nc1ccc(C#N)c(C(F)(F)F)c1 (racemic)"
  measured target: "LNCaP"
  pIC50: 5.01

* * *

- Tested on: LNCaP
- test name: Antiproliferative activity against human LNCAP cells assessed as reduction in cell growth incubated for 96 hrs by propidium iodide based 2D monolayer assay
- Assay type: functional

- molecule: "CC(O)(COc1cc(C(F)(F)F)cc(C(F)(F)F)c1)C(=O)Nc1cccc(S(F)(F)(F)(F)F)c1 (racemic)"
  IC50 [µM]: 2.8
- molecule: "CC(O)(CS(=O)(=O)c1cccc(S(F)(F)(F)(F)F)c1)C(=O)Nc1ccc(S(F)(F)(F)(F)F)cc1 (racemic)"
  IC50 [µM]: 31.3
- molecule: "CC(O)(COc1cccc(S(F)(F)(F)(F)F)c1)C(=O)Nc1ccc([N+](=O)[O-])c(C(F)(F)F)c1 (racemic)"
  IC50 [µM]: 3.3
- molecule: "CC(O)(CSc1ccccc1C(F)(F)F)C(=O)Nc1ccc(S(F)(F)(F)(F)F)cc1 (racemic)"
  IC50 [µM]: 12.3
- molecule: "CC(O)(CSc1ccc(S(F)(F)(F)(F)F)cc1)C(=O)Nc1ccc(C#N)cc1C(F)(F)F (racemic)"
  IC50 [µM]: 15.1
- molecule: "CC(O)(COc1cccc(C(F)(F)F)c1)C(=O)Nc1cccc(S(F)(F)(F)(F)F)c1 (racemic)"
  IC50 [µM]: 28.8
- molecule: "CC(O)(CSc1cccc(OC(F)(F)F)c1)C(=O)Nc1cccc(S(F)(F)(F)(F)F)c1 (racemic)"
  IC50 [µM]: 10.9
- molecule: "CC1(C)C(=O)N(c2ccc(C#N)c(C(F)(F)F)c2)C(=S)N1c1cccc(S(F)(F)(F)(F)F)c1"
  IC50 [µM]: 6.9

* * *

- Test system: CWR22R
- test name: Antiproliferative activity against human 22Rv1 cells assessed as T/C value at 3.2 x 10^1 uM incubated for 96 hrs by propidium iodide based 2D monolayer assay
- Type: functional
# cutoff 7% applies to T/C; >= gives T, < gives F

- compound: "CC(O)(COc1cc(C(F)(F)F)cc(C(F)(F)F)c1)C(=O)Nc1cccc(S(F)(F)(F)(F)F)c1 (racemic)"
  classification: "F"
- compound: "CC(O)(COc1cccc(S(F)(F)(F)(F)F)c1)C(=O)Nc1ccc([N+](=O)[O-])c(C(F)(F)F)c1 (racemic)"
  classification: "F"
- compound: "CC(O)(COc1cc(C(F)(F)F)cc(C(F)(F)F)c1)C(=O)Nc1ccc(S(F)(F)(F)(F)F)cc1 (racemic)"
  classification: "T"
- compound: "CC(O)(COc1ccc(C(F)(F)C(F)(F)F)cc1)C(=O)Nc1cc(C(F)(F)F)cc(C(F)(F)F)c1 (racemic)"
  classification: "F"
- compound: "CC1(C)C(=O)N(c2ccc(C#N)cc2C(F)(F)F)C(=S)N1c1ccc(S(F)(F)(F)(F)F)cc1"
  classification: "T"
- compound: "CC1(C)C(=O)N(c2cccc(S(F)(F)(F)(F)F)c2)C(=S)N1c1cccc(C(F)(F)F)c1"
  classification: "T"
- compound: "CNC(=O)c1ccc(N2C(=S)N(c3ccc(C#N)c(C(F)(F)F)c3)C(=O)C2(C)C)cc1F [ENZALUTAMIDE]"
  classification: "T"
- compound: "CC1(C)C(=O)N(c2ccc(C#N)cc2C(F)(F)F)C(=S)N1c1cccc(S(F)(F)(F)(F)F)c1"
  classification: "T"
- compound: "CC(O)(COc1cccc(S(F)(F)(F)(F)F)c1)C(=O)Nc1cc(C(F)(F)F)cc(C(F)(F)F)c1 (racemic)"
  classification: "F"

* * *

- Tested on: DU-145
- test name: Antiproliferative activity against human DU145 cells assessed as T/C value at 1 uM incubated for 96 hrs by propidium iodide based 2D monolayer assay
- Format: functional
T/C values by entry

- molecule: "CC1(C)C(=O)N(c2cccc(S(F)(F)(F)(F)F)c2)C(=S)N1c1cccc(C(F)(F)F)c1"
  T/C: "108%"
- molecule: "CC(O)(CSc1cc(C(F)(F)F)cc(C(F)(F)F)c1)C(=O)Nc1cccc(C(F)(F)C(F)(F)F)c1 (racemic)"
  T/C: "134%"
- molecule: "CC(O)(COc1ccc(S(F)(F)(F)(F)F)cc1)C(=O)Nc1cc(C(F)(F)F)cc(C(F)(F)F)c1 (racemic)"
  T/C: "117%"
- molecule: "CC(O)(COc1cc(C(F)(F)F)cc(C(F)(F)F)c1)C(=O)Nc1ccc(S(F)(F)(F)(F)F)cc1 (racemic)"
  T/C: "118%"
- molecule: "CC(O)(COc1cccc(S(F)(F)(F)(F)F)c1)C(=O)Nc1ccc([N+](=O)[O-])c(C(F)(F)F)c1 (racemic)"
  T/C: "122 - 125%"
- molecule: "CC(O)(COc1ccc(C(F)(F)C(F)(F)F)cc1)C(=O)Nc1cc(C(F)(F)F)cc(C(F)(F)F)c1 (racemic)"
  T/C: "115%"
- molecule: "CC(O)(COc1cc(C(F)(F)F)cc(C(F)(F)F)c1)C(=O)Nc1cccc(S(F)(F)(F)(F)F)c1 (racemic)"
  T/C: "123%"
